- Tested on: SR
- Experiment description: NCI tumour cell line growth inhibition, 48 h
Active and inactive are the calls of the source. Cut-off read from the data, not from the text of the source: active = GI50 up to about 1.1 µM and inactive = higher.
Answer with one of the outcomes given here: Y for active, N for inactive

Test call for this compound, please: `O=C(Nc1cccc2c1[nH]c1c(-c3ccccc3)nccc12)c1ccccc1[N+](=O)[O-]` N

Test call for this compound, please: `COc1ccc(/C=N/c2ccc(-c3nc4ccccc4[nH]3)cc2)cc1OC` N

Test call for this compound, please: O=C(O)CC1OCC=C2C[N+]3([O-])CCC45c6ccccc6NC4C1C2CC53 (centres undefined) N

Test call for this compound, please: `N#CSC/C(Cl)=C/Cl.N#CSC/C(Cl)=C\Cl` N

Test call for this compound, please: NC(=S)N/N=C/C1NCCC2CCCCC21 (centres undefined) Y

Test call for this compound, please: `Cc1ccc(C)c2c1C/C(=C\c1ccccc1C(=O)O)C2=O` N

Test call for this compound, please: `COc1ccc(-c2oc3cc(O)cc(O)c3c(=O)c2OC)cc1` N

Test call for this compound, please: `O=C(CSc1nnc(-c2ccc(/N=C\c3ccc(Cl)cc3)cc2)o1)Nc1cccc(Cl)c1` N

Test call for this compound, please: CC1(C)CC[C@]2(C(=O)O)[C@H](O)C[C@]3(C)C(=CC[C@@H]4[C@@]5(C)CC[C@H](OC6OC(C(=O)O)C(O)C(O)C6O)C(C)(C)[C@@H]5CC[C@]43C)[C@@H]2C1 (some centres undefined) N

====

- Test system: SF-295
- Experiment description: NCI tumour cell line growth inhibition, 48 h
Activity calls are given as the source filed them. Cut-off read from the data, not from the text of the source: active = GI50 up to about 1.1 µM and inactive = higher.
Answer with one of the outcomes given here: Y = active, N = inactive

Test call for this molecule, please: OC1(C2(c3ccc(Cl)cc3)CCCC2)c2ccccc2C2=NCCN21 (stereo not drawn) N

Test call for this molecule, please: `Cc1ccc(C)c2c1C/C(=C\c1ccccc1C(=O)O)C2=O` N

Test call for this molecule, please: `S=C(Nc1ccccc1)N(/N=C/C=C/c1ccccc1)c1nnc(-c2ccccc2)c(-c2ccccc2)n1` N

Test call for this molecule, please: `CCOc1ccccc1NC(=O)C1=C(C)NC(C)=C(C(=O)Nc2ccccc2OCC)C1c1ccc([N+](=O)[O-])cc1` N

Test call for this molecule, please: `O=c1c2cc(-c3ccccc3)sc2nc2sc(-c3ccccc3)nn12` N

Test call for this molecule, please: `CCCCOC(=O)NC(=O)c1cn(CCSCCOC(=O)NCCCCCCNC(=O)OCCSCCn2cc(C(=O)NC(=O)OCCCC)c(=O)[nH]c2=O)c(=O)[nH]c1=O` N

Test call for this molecule, please: S=C1NN=C2C(=C3CCCC4C5CCCCC5N2C34)N1 (stereo not drawn) N

Test call for this molecule, please: `O=c1c2ccccc2oc2ccccc12.Oc1cccc2cccnc12` N

Test call for this molecule, please: CCN(C1=CC(=O)NC2CCCCN12)c1ccccc1 (stereo not drawn) N

Test call for this molecule, please: `O=C(O)c1ccc(/N=N/c2cc(S(=O)(=O)O)c3cccnc3c2O)cc1` N

Test call for this molecule, please: `CCCOc1ccc(-c2nc(-c3ccc(/N=C/c4ccc(N(CCOS(C)(=O)=O)CCOS(C)(=O)=O)cc4C)cc3)cs2)cc1` N

Test call for this molecule, please: `c1ccc(-c2cc(-c3ccncc3)cc(-c3ccncc3)n2)cc1` N

Test call for this molecule, please: `COC(=O)[C@H]1[C@@H](O)[C@@]2(O)c3c(OC)cc(OC)cc3O[C@@]2(c2ccc3c(c2)OCO3)[C@@H]1c1ccccc1` Y

Test call for this molecule, please: `NS(=O)(=O)c1ccc(NC(=O)N/N=C/c2ccccc2[N+](=O)[O-])cc1` N

Test call for this molecule, please: `Nc1nc(Cl)cc(NCC2(CO)CC(=O)C2)n1` N

Test call for this molecule, please: `CN(CCNC(=O)c1nn(-c2ccccc2)c2c1Cc1ccccc1-2)CCNC(=O)c1nn(-c2ccccc2)c2c1Cc1ccccc1-2` N

Test call for this molecule, please: `CC(=O)OC(C)(C)/C=C/C(=O)[C@](C)(O)[C@H]1[C@H](O)C[C@@]2(C)[C@@H]3CC=C4[C@@H](C[C@H](O)C(=O)C4(C)C)[C@]3(C)C(=O)C[C@]12C` Y

Test call for this molecule, please: `Cn1c2c(cc(-c3ccccc3)c1=O)COc1ccccc1-2` N
